Entries and their measured IC50 follow.
Tested on: IL6R-ss+10aa/Gaussia Luciferase
Test: Dox-induced IL-6R-ss-Gluc Assay
Type: cell-based
Details: Flp-In 293 T-REx cells, 24 hours with doxycycline; Table 1; read-out: 24hr Dox Inducible IL6R(ss + 10)Gluc 293FRT/TO: Mean IC50
Description: Flp-In 293 T-REx™ cells were transfected with pcDNATM5/FRT/TO plasmid inserted with cDNA encoding Gaussia Luciferase fused to the 3′ end of cDNA encoding IL6R signal sequence plus 10 amino acids (N-[…]-C). Transfected cells were selected for resistance to the selectable markers Hygromycin and Blasticidin to create a stable cell line that contained the IL6R-ss+10aa/Gaussia Luciferase cDNA insert whose expression was regulated under the T-REx™ system. […]
Recorded Endpoint: IC50 (nM)

Compound String	Study Target	Qualifier Operator	Numeric Readout
N#Cc1ccc(/C=C/c2csc(NC(=O)c3cccn3Cc3ccnc(F)c3)n2)nc1	IL6R-ss+10aa/Gaussia Luciferase	>	25000
[2H]c1nc(/C=C/c2csc(NC(=O)c3cccn3Cc3ccnc(F)c3)n2)cn1C(C)C	IL6R-ss+10aa/Gaussia Luciferase	>	25000
N#Cc1ocnc1/C=C/c1csc(NC(=O)c2cccn2Cc2ccnc(F)c2)n1	IL6R-ss+10aa/Gaussia Luciferase	>	25000
O=C(Nc1nc(/C=C/c2ncn(C3CC3)c2Cl)cs1)c1cc(SC(F)F)cn1Cc1ccnc(F)c1	IL6R-ss+10aa/Gaussia Luciferase	=	1940
CC(C)n1cnc(/C=C/c2csc(NC(=O)c3cc(Cl)cn3Cc3ccnc(F)c3)n2)c1Cl	IL6R-ss+10aa/Gaussia Luciferase	=	1890
[2H]C([2H])(c1ccnc(F)c1)n1cc(OC)cc1C(=O)Nc1nc(/C=C/c2ncn(C3CC3)c2Cl)cs1	IL6R-ss+10aa/Gaussia Luciferase	=	2110
Cc1cnc(F)c(C)c1Cn1cc(OC(F)F)cc1C(=O)Nc1nc(/C=C/c2ncn(C3CC3)c2Cl)cs1	IL6R-ss+10aa/Gaussia Luciferase	>	25000
CCOc1cc(C(=O)Nc2nc(/C=C/c3ncn(C4CC4)c3Cl)cs2)n(Cc2ccnc(F)c2)c1	IL6R-ss+10aa/Gaussia Luciferase	=	2100
O=C(Nc1nc(/C=C/c2cccc(F)c2)cs1)c1cccn1Cc1ccnc(F)c1	IL6R-ss+10aa/Gaussia Luciferase	=	1200
O=C(Nc1nc(/C=C/c2ncn(C3CC3)c2Cl)cs1)c1cc(O)cn1Cc1ccnc(F)c1	IL6R-ss+10aa/Gaussia Luciferase	=	5530
N#Cc1c(/C=C/c2csc(NC(=O)c3cc(OC(F)F)cn3Cc3ccnc(F)c3)n2)ncn1C1CC1	IL6R-ss+10aa/Gaussia Luciferase	=	2110
COc1cc(C(=O)Nc2nc(/C=C/c3ncn(C4CC4)c3Cl)cs2)n(Cc2ccnc(F)c2)c1	IL6R-ss+10aa/Gaussia Luciferase	=	2560
[2H]C([2H])([2H])Oc1cc(C(=O)Nc2nc(/C=C/c3ncn(C4CC4)c3Cl)cs2)n(Cc2ccnc(F)c2F)c1	IL6R-ss+10aa/Gaussia Luciferase	>	25000
O=C(Nc1nc(/C=C/c2ncn(C3CC3)c2Cl)cs1)c1cc(C(F)F)cn1Cc1ccnc(F)c1	IL6R-ss+10aa/Gaussia Luciferase	>	25000
CC(=O)N[C@H]1CC[C@@H](/C=C/c2csc(NC(=O)c3cccn3Cc3ccncc3)n2)CC1	IL6R-ss+10aa/Gaussia Luciferase	>	25000
O=C(Nc1nc(/C=C/c2ncn(C3CC3)c2Cl)cs1)c1cc(OCF)cn1Cc1ccnc(F)c1	IL6R-ss+10aa/Gaussia Luciferase	=	2910
Cc1nc(/C=C/c2csc(NC(=O)c3cccn3Cc3ccnc(F)c3)n2)ccc1C#N	IL6R-ss+10aa/Gaussia Luciferase	>	25000

###

tested on: IL-2-FL/Gaussia Luciferase; test: Dox Inducible IL2-FL-Gluc Assay; assay type: cell-based; details: ratio of IC50s IL2/PD1; Table 1
Recorded Endpoint: 24 hr Dox Inducible IL2FLGluc 293FRT/TO: IL2/PD1

Compound String	Study Target	Result
Cc1nc(/C=C/c2csc(NC(=O)c3cccn3Cc3ccnc(F)c3)n2)ccc1C#N	IL-2-FL/Gaussia Luciferase	>23
[2H]c1nc(/C=C/c2csc(NC(=O)c3cccn3Cc3ccnc(F)c3)n2)cn1C(C)C	IL-2-FL/Gaussia Luciferase	>380
O=C(Nc1nc(/C=C/c2ncn(C3CC3)c2Cl)cs1)c1cc(SC(F)F)cn1Cc1ccnc(F)c1	IL-2-FL/Gaussia Luciferase	>2400
Cc1c(Cn2cc(OC(F)F)cc2C(=O)Nc2nc(/C=C/c3ncn(C4CC4)c3Cl)cs2)ccnc1F	IL-2-FL/Gaussia Luciferase	>540

###

Entries and their measured IC50 follow.
tested on: IL6R-ss+10aa/Gaussia Luciferase; assay: Dox-induced IL-6R-ss-Gluc Assay; type: cell-based; conditions: Flp-In 293 T-REx cells, 24 hours with doxycycline; Table 1; read-out: 24hr Dox Inducible IL6R(ss + 10)Gluc 293FRT/TO: Mean IC50

Molecule	Study Target	IC50
Cc1c(Cn2cc(OC(F)F)cc2C(=O)Nc2nc(/C=C/c3ncn(C4CC4)c3Cl)cs2)ccnc1F [Compound A23]	IL6R-ss+10aa/Gaussia Luciferase	> 25 µM
O=C(Nc1nc(/C=C/C2CCOC2)cs1)c1cccn1Cc1ccnc(F)c1 (centres unmarked) [Compound B22]	IL6R-ss+10aa/Gaussia Luciferase	> 25 µM
CN[C@H]1CC[C@H](/C=C/c2csc(NC(=O)c3cccn3Cc3ccncc3)n2)CC1 [Compound B12]	IL6R-ss+10aa/Gaussia Luciferase	> 25 µM
COc1cc(C(=O)Nc2nc(/C=C/c3ncn(C(C)C)c3Cl)c(CO)s2)n(Cc2ccnc(F)c2F)c1 [Compound A21]	IL6R-ss+10aa/Gaussia Luciferase	> 25 µM
COc1cc(C(=O)Nc2nc(/C(F)=C/c3cn(C(C)C)cn3)cs2)n(Cc2ccnc(F)c2)c1 [Compound A9]	IL6R-ss+10aa/Gaussia Luciferase	> 25 µM
O=C(Nc1nc(/C=C/c2ncoc2C(F)(F)F)cs1)c1cc(Cl)cn1Cc1ccnc(F)c1 [Compound A8]	IL6R-ss+10aa/Gaussia Luciferase	1.96 µM
CC(C)n1cnc(/C=C/c2csc(NC(=O)c3cc(OC(F)F)cn3Cc3ccnc(F)c3)n2)c1Cl [Compound A7]	IL6R-ss+10aa/Gaussia Luciferase	2.43 µM
CN[C@H]1CC[C@@H](/C=C/c2csc(NC(=O)c3cccn3Cc3ccncc3)n2)CC1 [Compound B11]	IL6R-ss+10aa/Gaussia Luciferase	> 25 µM
